Selectivity Index: recorded values
Experiment: Selectivity index, ratio of ED50 for human KB cells to IC50 for […] Plasmodium falciparum D6
Assay type: functional
Enter a number only.

INSERT INTO measurements (given_smiles, reported) VALUES
  ('COc1ccc2cc1Oc1cc3c(nccc3cc1OC)Cc1ccc(cc1)COc1c(OC)cc3c(c1O)[C@H](C2)N(C)CC3', 130),
  ('COc1ccc2cc1Oc1ccc(cc1)C[C@H]1c3c(cc(OC)c(OC)c3Oc3c4c(cc(OC)c3OC)[C@H](C2)N(C)CC4)CCN1C', 37.7),
  ('COc1cc2c(cc1O)[C@H](Cc1ccc(OC)c(Oc3ccc(C[C@H]4c5cc(OC)c(OC)cc5CCN4C)cc3)c1)N(C)CC2', 215),
  ('COc1cc2c3cc1Oc1c(O)c(OC)cc4c1[C@H](Cc1ccc(O)c(c1)Oc1ccc(cc1)C[C@H]3N(C)CC2)N(C)CC4', 130),
  ('COc1ccc2cc1Oc1cc3c(cc1OC)CCN[C@H]3Cc1ccc(cc1)Oc1c3c(cc4c1[C@@H](C2)N(C)CC4)OCO3', 7.5),
  ('COc1ccc2cc1Oc1ccc(cc1)C[C@H]1c3cc(c(OC)cc3CCN1C)Oc1c(OC)c(OC)cc3c1[C@@H](C2)N(C)CC3', 40),
  ('COc1ccc2cc1Oc1cc3c(cc1OC)CCN(C)[C@@H]3Cc1ccc(cc1)Oc1c(O)c(OC)cc3c1[C@@H](C2)N(C)CC3', 60),
  ('COc1ccc2cc1Oc1ccc(cc1)C[C@H]1c3cc(c(OC)cc3CCN1C)Oc1c(O)c(OC)cc3c1[C@@H](C2)NCC3', 92),
  ('COc1cc2c3cc1Oc1c(OC)c(OC)cc4c1[C@H](Cc1ccc(cc1)Oc1cc(ccc1O)C[C@@H]3N(C)CC2)N(C)CC4', 350),
  ('COc1cc2c3cc1Oc1c(O)c(OC)cc4c1[C@@H](Cc1ccc(O)c(c1)Oc1ccc(cc1)C[C@@H]3N(C)CC2)N(C)CC4', 40);

What value of Selectivity Index has been reported for the following compound? `COc1cc2c3cc1Oc1c(OC)c(OC)cc4c1[C@@H](Cc1ccc(O)c(c1)Oc1ccc(cc1)C[C@@H]3N(C)CC2)N(C)CC4`
72

What value of Selectivity Index has been reported for the following compound? `CN1CCc2cc3c4cc2[C@@H]1Cc1ccc(O)c(c1)Oc1ccc(cc1)C[C@H]1c2c(cc(O)c(c2O4)O3)CCN1C`
55

What value of Selectivity Index has been reported for the following compound? `COc1ccc2cc1Oc1ccc(cc1)C[C@H]1c3c(cc(OC)c(OC)c3Oc3cc4c(cc3OC)CCN[C@@H]4C2)CCN1C`
130

What value of Selectivity Index has been reported for the following compound? `COc1ccc2cc1Oc1ccc(cc1)C[C@@H]1c3cc(c(OC)cc3CCN1C)Oc1c(OC)c(OC)cc3c1[C@@H](C2)N(C)CC3`
35
